ASSAYED TARGET: hSyk (full length) (Homo sapiens)
Construct: Purified recombinant hSyk (full length)
ASSAY INFO: Inhibition of enzymatic Syk kinase activity (HTRF)
Format: biochemical
ASSAY CONDITIONS: read-out: IC50 in Syk enzymatic assay

{"STRUCTURE STRING": "O=c1[nH]cnc2cc(-c3ccccc3)nc(Nc3ccc(N4CCOCC4)cc3)c12", "IC50 / µM": 0.09}

----------
ASSAYED TARGET: Zap70 (kinase domain) (Homo sapiens)
Sequence (P43403 338-600 limits assumed): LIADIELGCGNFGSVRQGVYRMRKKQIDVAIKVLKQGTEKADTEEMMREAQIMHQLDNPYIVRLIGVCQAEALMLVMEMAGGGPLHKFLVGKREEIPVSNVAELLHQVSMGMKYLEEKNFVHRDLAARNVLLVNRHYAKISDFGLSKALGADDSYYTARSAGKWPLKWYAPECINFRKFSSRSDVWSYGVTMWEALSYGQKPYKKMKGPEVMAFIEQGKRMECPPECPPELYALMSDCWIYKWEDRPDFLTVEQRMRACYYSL
pIC50: −log10 of the molar value.
READOUT LABEL: pIC50

{"STRUCTURE STRING": "O=c1[nH]cnc2cc(-c3ccccc3)nc(Nc3ccc(N4CCOCC4)cc3)c12", "ASSAYED TARGET": "Zap70 (kinase domain) (Homo sapiens)", "READOUT LABEL": "pIC50", "ASSAY RESULT": 4.42}
